protocol notes: Kinetic solubility determination in PBS
Format: physicochemical
run conditions: PBS 1X pH 7.4, 2.0% DMSO, 24 hour incubation at ambient temperature
measurement type: Solubility in aqueous PBS Buffer (1X, pH 7.4), ug/mL

// solved cases for Solubility in aqueous PBS Buffer (1X, pH 7.4), ug/mL follow
CC[C@H](C)[C@H](NC(=O)C1CCCCC1C(=O)O)C(=O)NCC(=O)N1c2ccccc2C[C@H]1C(=O)NCc1nn[nH]n1 (single isomer, unassigned) [Example A23-2]
386 ug/mL
CC[C@H](C)[C@H](NC(=O)CC(C)CC(=O)O)C(=O)NCC(=O)N1c2ccccc2C[C@H]1C(=O)NCc1nn[nH]n1 (single isomer, unassigned)
>407 ug/mL
CC[C@H](C)[C@H](NC(=O)C1CCCC1C(=O)O)C(=O)NCC(=O)N1c2ccccc2C[C@H]1C(=O)NCc1nn[nH]n1 (single isomer, unassigned)
>416 ug/mL
CC[C@H](C)[C@H](NC(=O)Cc1csc2ccccc12)C(=O)N[C@H]1CCc2cccc3c2N(C1=O)[C@H](C(=O)NCc1c[nH]nn1)C3 [Willoughby 20, reference compound]
2.6-3.0 ug/mL
CC[C@H](C)[C@H](NC(=O)C(C)CC(=O)O)C(=O)NCC(=O)N1c2ccccc2C[C@H]1C(=O)NCc1nn[nH]n1 (single isomer, unassigned)
>396 ug/mL

Take each entry in turn and give its Solubility in aqueous PBS Buffer (1X, pH 7.4), ug/mL.
1. CC[C@H](C)[C@H](NC(=O)C1CC=CCC1C(=O)O)C(=O)NCC(=O)N1c2ccccc2C[C@H]1C(=O)NCc1nn[nH]n1 (single isomer, unassigned)
2. CC[C@H](C)[C@H](NC(=O)C1CC1C(=O)O)C(=O)NCC(=O)N1c2ccccc2C[C@H]1C(=O)NCc1nn[nH]n1 (single isomer, unassigned)
3. CC[C@H](C)[C@H](NC(=O)C(CCC(=O)O)c1ccccc1)C(=O)NCC(=O)N1c2ccccc2C[C@H]1C(=O)NCc1nn[nH]n1 (single isomer, unassigned)
4. CC[C@H](C)[C@H](NC(=O)C1CCCCC1C(=O)O)C(=O)NCC(=O)N1c2ccccc2C[C@H]1C(=O)NCc1nn[nH]n1 (single isomer, unassigned) [Example A20-2]
5. CC[C@H](C)[C@H](NC(=O)C1CCCCC1C(=O)O)C(=O)NCC(=O)N1c2ccccc2C[C@H]1C(=O)NCc1nn[nH]n1 (single isomer, unassigned) [Example A23-1]

RESULT:
>425 ug/mL
361 ug/mL
>454 ug/mL
429 ug/mL
>426 ug/mL
